Test system: MS2 coat protein
experiment_summary: apparent KD of MS2 coat protein; designed switch direction (-1 OFF switch, 1 ON switch): -1; higher = weaker reporter binding
measurement_parameters: input ligand: FMN 200 uM
Assign condition met whenever apparent KD of MS2 coat protein does not fall below 200 nM; assign condition not met whenever it does.

[ask] Given the entry ACAUGUCUUGUAGGAUAUAGUUGACAUGAGGAUCACCCAUGUUGAUUCAUGUCUAUGGAAACGGACUAGAAGGACGAGAAUAUG [Ex NG2 #17] (Eterna round: R96, puzzle: Exclusion NG 2) , answer whether its apparent KD of MS2 coat protein meets or surpasses 200 nM.
[reply] condition not met

[ask] Given the entry GCUAGUCAUGUCAGGAUAUGCAGAACCUUGGUUCUGCAGAAGGGACAUGAGGAUCACCCAUGUGCCUAACUAGC [Mat - Exclusion 4 - JL Mod - D15] (Eterna round: R97, puzzle: Brourd's mod of Exclusion 4) , answer whether its apparent KD of MS2 coat protein meets or surpasses 200 nM.
[reply] condition met

[ask] Given the entry GUUUAGUGAGGAUAUGUGGCUUCGAUCGUGCGCGGUCUGCUACAGAAGGCACAUGAGGAUCACCCAUGUUCCUC [salish99_ex4_r4_308] (Eterna round: R97, puzzle: Exclusion 4) , answer whether its apparent KD of MS2 coat protein meets or surpasses 200 nM.
[reply] condition met

[ask] Given the entry ACAUUACAUGAGGAUCACCCAUGUGAGGAUAUGGAGCGAGAGUGUCCUGUCGCGUACACCAGAAGGCGCGGGUG [1st #50] (Eterna round: R97, puzzle: Exclusion 1) , answer whether its apparent KD of MS2 coat protein meets or surpasses 200 nM.
[reply] condition met

[ask] Given the entry AGCCAAGCAGGAUAUAUCCGGGAUAACAUGAGGAUCACCCAUGUGACCGAUUGAUGUCCUAUAGAAGGGCUUGGGA [Mod of ViennaUCT 22 - Jieux - Exclusion 5] (Eterna round: R97, puzzle: Exclusion 5) , answer whether its apparent KD of MS2 coat protein meets or surpasses 200 nM.
[reply] condition not met
